molecular target: human catalytic domain ROCK II protein (amino acids 5-554) with a N-terminal GST tag (Homo sapiens); assay: biochemical
pIC50: −log10 of the molar value.
measuredProperty: pIC50

1. COc1cccc([C@@H](C)NC(=O)N2CCN(c3ccncc3F)CC2)c1Cl
2. C[C@@H]1CN(c2ccncc2F)CCN1C(=O)NCc1cccc2c1OC(F)(F)O2
[Q] Quick one: lower pIC50, 1 or 2 ? Write down the label attached to your selection.
[A] 1

1. C[C@@H](NC(=O)N1CCN(c2ccnc(F)c2)[C@@H](C)C1)c1cccc2c1CCO2
2. [2H]C([2H])([2H])Oc1cccc([C@@H](C)NC(=O)N2CCN(c3ccnc(F)c3)C[C@H]2C)c1
[Q] Recorded pIC50 values differ for 1 and 2 ; which one is higher? Write down the label attached to your selection.
[A] 2

---

biological target: human catalytic domain ROCK II protein (amino acids 5-554) with a N-terminal GST tag (Homo sapiens, UniProt O75116); test: biochemical
Sequence (O75116 5-554): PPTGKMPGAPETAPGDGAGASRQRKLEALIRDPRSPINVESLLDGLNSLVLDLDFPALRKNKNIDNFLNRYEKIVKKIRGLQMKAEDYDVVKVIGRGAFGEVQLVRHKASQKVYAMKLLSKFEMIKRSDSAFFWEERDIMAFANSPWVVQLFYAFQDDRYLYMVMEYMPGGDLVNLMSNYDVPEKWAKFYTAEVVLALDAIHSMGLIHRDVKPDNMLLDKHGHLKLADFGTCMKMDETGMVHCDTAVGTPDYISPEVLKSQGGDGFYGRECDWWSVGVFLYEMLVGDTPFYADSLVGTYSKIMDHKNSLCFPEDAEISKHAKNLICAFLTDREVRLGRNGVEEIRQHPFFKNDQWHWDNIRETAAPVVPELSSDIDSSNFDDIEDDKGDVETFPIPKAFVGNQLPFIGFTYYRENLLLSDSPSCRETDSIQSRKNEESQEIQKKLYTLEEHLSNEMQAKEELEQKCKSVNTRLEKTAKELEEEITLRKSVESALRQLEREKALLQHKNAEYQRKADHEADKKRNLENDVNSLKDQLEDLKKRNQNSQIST
pIC50: −log10 of the molar value. Structures can show the parent of a compound that is named as a salt.
measuredProperty: pIC50

Solved entries:
C[C@@H]1CN(C(=O)N[C@H](C)c2ccc(F)cc2Cl)CCN1c1ccnc(F)c1 [Example 14] = 5.47
C[C@@H](NC(=O)N1CCN(c2ccncc2F)[C@@H](C)C1)c1cccc(OC(F)F)c1 [Example 145] = 7.91
C[C@@H](NC(=O)N1CCN(c2ccnc(F)c2)[C@@H](C)C1)c1cccc(OC(F)F)c1 [Example 120] = 7.23
COc1cccc(CN2CC[C@H]3CN(c4ccncc4F)CCN3C2=O)c1 [Example 88] = 6.44
C[C@@H](NC(=O)N1CCN(c2ccncc2F)CC1)c1cccc2c1OC(F)(F)O2 [Example 36] = 7.06
COc1cccc([C@@H](C)NC(=O)N2CCN(c3ccncc3F)CC2CO)c1 (some centres unmarked) [Example 137] = 8.32

P. C[C@H](NC(=O)N1CCN(c2ccncc2F)C[C@H]1C)c1cccn2nccc12 [Example 62]
Q. COc1cccc(CNC(=O)N2[C@H](C)CN(c3ccncc3F)C[C@H]2C)c1 [Example 95]
R. C[C@@H]1CN(c2ccncc2F)CCN1C(=O)N[C@H](C)c1cccn2nccc12 [Example 61]
S. COc1cccc([C@@H](C)NC(=O)N2[C@H](C)CN(c3ccncc3F)C[C@H]2C)c1 [Example 97, Formate]
[Q] Put these in order: smallest pIC50 first, largest last. Please write the labels in the order that was asked for.
[A] P, Q, S, R

---

target: human catalytic domain ROCK II protein (amino acids 5-554) with a N-terminal GST tag (Homo sapiens, UniProt O75116); test: biochemical
pIC50: −log10 of the molar value.
measuredProperty: pIC50

Solved entries:
COc1ccc(F)c(CNC(=O)N2CCN(c3ccncc3F)C[C@H]2C)c1 [Example 55] = 7.63
C[C@@H]1CN(c2ccncc2F)CCN1C(=O)N[C@H](C)c1cccc2nn(C)cc12 [Example 71] = 8.51
Cc1cnc2cccc([C@@H](C)NC(=O)N3CCN(c4ccncc4F)CC3)n12 [Example 34] = 8.12

A. COc1ccc(F)c([C@@H](C)NC(=O)N2CCN(c3ccncc3F)CC2)c1 [Example 126]
B. Cc1cnc2cccc([C@H](C)NC(=O)N3CCN(c4ccncc4F)CC3)n12 [Example 35]
[Q] Recorded pIC50 values differ for A and B ; which one is higher? Write down the label attached to your selection.
[A] A

I. C[C@H](NC(=O)N1CCN(c2ccncc2F)C[C@H]1C)c1cccc2nn(C)cc12 [Example 72]
II. COc1cccc([C@@H](C)NC(=O)N2CCN(c3ccnc(F)c3)C[C@H]2C)c1 [Example 1]
[Q] Quick one: lower pIC50, I or II ? Write down the label attached to your selection.
[A] I
(I: 7.06, II: 8.19)

A. COc1ccc(Cl)c([C@@H](C)NC(=O)N2CCN(c3ccnc(F)c3)C[C@H]2C)c1 [Example 3]
B. C[C@@H]1CN(c2ccncc2F)CCN1C(=O)OCc1cccc2nccn12 [Example 73]
[Q] Recorded pIC50 values differ for A and B ; which one is higher? Write down the label attached to your selection.
[A] A

1. C[C@@H](NC(=O)N1CCN(c2ccncc2F)CC1)c1cccc2c1OCO2 [Example 27]
2. COc1cccc(CN2C[C@H]3CN(c4ccncc4F)CCN3C2=O)c1 [Example 87]
3. O=C(NCc1cccc2ncoc12)N1CCN(c2ccncc2F)CC1 [Example 39]
4. C[C@@H](NC(=O)N1CCN(c2ccncc2F)[C@@H](C)C1)c1ccccc1Cl [Example 146]
[Q] Rank the 4 compounds: largest pIC50 first, smallest last. Please write the labels in the order that was asked for.
[A] 1, 3, 4, 2
(1: 8.24, 3: 7.26, 4: 6.96, 2: 5.83)

---

molecular target: human catalytic domain ROCK II protein (amino acids 5-554) with a N-terminal GST tag (Homo sapiens, UniProt O75116); assay: biochemical
pIC50: −log10 of the molar value.
measuredProperty: pIC50

Solved entries:
COc1cccc(CN2C[C@@H]3CN(c4ccncc4F)CCN3C2=O)c1 [Example 86] = 5.49
C[C@@H]1CN(c2ccnc(F)c2)CCN1C(=O)N[C@H](C)c1cccc2occc12 [Example 113] = 8.41

a. COc1cccc([C@@H](C)NC(=O)N2CCN(c3ccncc3F)[C@@H](C)C2)c1 [Example 90]
b. C[C@@H]1CN(c2ccncc2F)CCN1C(=O)NCc1cccc(OC(F)F)c1 [Example 139]
[Q] Recorded pIC50 values differ for a and b ; which one is higher? Write down the label attached to your selection.
[A] a

---

system: cellular ROCK activity (cofilin phosphorylation at Ser3) in A7r5 rat smooth muscle cells; test: Cellular ROCK activity: cofilin (Ser3) phosphorylation, In-Cell Western assay; assay type: cell-based; conditions: Rattus norvegicus, A7R5, 1 h, 1 hour compound incubation, phospho-cofilin (Ser3), read-out: CELL_IC50
pIC50: −log10 of the molar value.
measuredProperty: pIC50

Solved entries:
[2H]C([2H])([2H])Oc1cccc([C@H](NC(=O)N2CCN(c3ccncc3F)CC2)C([2H])([2H])[2H])c1 [Example 131] = 6.82
C[C@@H]1CN(c2ccnc(F)c2)CCN1C(=O)N[C@H](C)c1cccc2occc12 [Example 113] = 6.91

1. C[C@@H]1CN(c2ccncc2F)CCN1C(=O)NCc1ccccc1Cl [Example 54]
2. C[C@@H](NC(=O)N1CCN(c2ccncc2F)[C@@H](C)C1)c1cccc2occc12 [Example 148]
[Q] Recorded pIC50 values differ for 1 and 2 ; which one is higher? Write down the label attached to your selection.
[A] 2

---

target: human catalytic domain ROCK II protein (amino acids 5-554) with a N-terminal GST tag (Homo sapiens, UniProt O75116); experiment: biochemical
pIC50: −log10 of the molar value.
measuredProperty: pIC50

1. COc1cccc([C@@H](C)NC(=O)N2CCN(c3ccncc3F)C[C@H]2C)c1
2. CC(NC(=O)N1CCN(c2ccncc2F)CC1)c1c(F)cccc1Cl (stereo not shown)
3. C[C@@H]1CN(c2ccncc2F)CCN1C(=O)N[C@H](C)c1cccc2c1CCO2
[Q] # rank above entries by pIC50 (max first, min last) Please write the labels in the order that was asked for.
[A] 3, 1, 2

P. COc1cc(F)cc(CN2C[C@H]3CN(c4ccncc4F)CCN3C2=O)c1
Q. [2H]C([2H])([2H])Oc1cccc([C@@H](C)NC(=O)N2CCN(c3ccncc3F)CC2)c1
[Q] Recorded pIC50 values differ for P and Q ; which one is higher? Write down the label attached to your selection.
[A] Q

a. COc1cccc([C@@H](C)NC(=O)N2C[C@@H]3C[C@H]2CN3c2ccncc2F)c1
b. Cc1cnc2cccc([C@@H](C)NC(=O)N3CCN(c4ccnc(F)c4)C[C@H]3C)n12
[Q] Recorded pIC50 values differ for a and b ; which one is higher? Write down the label attached to your selection.
[A] b

---

molecular target: human catalytic domain ROCK II protein (amino acids 5-554) with a N-terminal GST tag (Homo sapiens, UniProt O75116); experiment: biochemical
measuredProperty: IC50 (nM)

Solved entries:
[2H]C([2H])([2H])Oc1cccc([C@H](NC(=O)N2CCN(c3ccnc(F)c3)C[C@H]2C)C([2H])([2H])[2H])c1 = 6.9
Cc1cnc2cccc([C@@H](C)NC(=O)N3CCN(c4ccncc4F)C[C@H]3C)n12 = 3.4
C[C@@H]1CN(c2ccnc(F)c2)CCN1C(=O)NCc1cccc2occc12 = 22
Cc1cnc2cccc([C@H](C)NC(=O)N3CCN(c4ccncc4F)C[C@H]3C)n12 = 297
COc1cccc([C@@H](C)NC(=O)N2CCN(c3ccncc3F)C(=O)C2)c1 = 2120
C[C@@H]1CN(c2ccncc2F)CCN1C(=O)NCc1cccc2nn(C)cc12 = 4.2

a. [2H]C([2H])([2H])Oc1cccc([C@H](NC(=O)N2CCN(c3ccncc3F)C[C@H]2C)C([2H])([2H])[2H])c1
b. COc1cccc(CNC(=O)N2CCN(c3ccnc(F)c3)C[C@H]2C)c1
c. O=C(NCc1ccccc1Cl)N1CCN(c2ccncc2F)CC1
d. C[C@H]1CN(C(=O)NCc2cccc(OC(F)F)c2)CCN1c1ccnc(F)c1
[Q] Rank the 4 compounds: largest IC50 first, smallest last. Please write the labels in the order that was asked for.
[A] d, c, b, a
